test system: peptide-pulsed TISI cells (HLA-A24/24); experiment: CTL lines induced with peptide-pulsed DCs, four-hour 51Cr release assay; assay type: cell-based, human; conditions: CTL line induced with the peptide; ×20; targets without peptide
Where no end group is shown, it is not given here.
Threshold-based label: CYTOTOXIC ACTIVITY ×20 Pep(−) under 4% gives Fulfilled, CYTOTOXIC ACTIVITY ×20 Pep(−) not under 4% gives Not fulfilled.

{"SEQUENCE CODE": "VYSSEEAEL [SEQ ID NO:2]", "CATEGORY LABEL": "Not fulfilled"}
{"SEQUENCE CODE": "AFGSGMESL [SEQ ID NO:9]", "CATEGORY LABEL": "Not fulfilled"}
{"SEQUENCE CODE": "RFVPDGNRI [SEQ ID NO:8]", "CATEGORY LABEL": "Fulfilled"}
{"SEQUENCE CODE": "EFPRDRLKL [SEQ ID NO:6]", "CATEGORY LABEL": "Fulfilled"}
{"SEQUENCE CODE": "TFSELVEHL [SEQ ID NO:7]", "CATEGORY LABEL": "Fulfilled"}
{"SEQUENCE CODE": "KWEFPRDRL [SEQ ID NO:11]", "CATEGORY LABEL": "Fulfilled"}
{"SEQUENCE CODE": "GYRIYDVVL [SEQ ID NO:3]", "CATEGORY LABEL": "Fulfilled"}
{"SEQUENCE CODE": "SYMISYAGM [SEQ ID NO:5]", "CATEGORY LABEL": "Fulfilled"}
{"SEQUENCE CODE": "KNLDTLWKL [SEQ ID NO:10]", "CATEGORY LABEL": "Fulfilled"}

====

tested on: peptide-pulsed TISI cells (HLA-A24/24); test: CTL lines induced with peptide-pulsed DCs, four-hour 51Cr release assay; type: cell-based, human; conditions: CTL line induced with the peptide; ×2; peptide-pulsed targets
Where no end group is shown, it is not given here.
Kind request: treat 8% as inclusive, so CYTOTOXIC ACTIVITY ×2 Pep(+) at 8% or higher is label 1, anything lower is label 0.

{"SEQUENCE CODE": "TFSELVEHL [SEQ ID NO:7]", "CATEGORY LABEL": "label 0"}
{"SEQUENCE CODE": "GYRIYDVVL [SEQ ID NO:3]", "CATEGORY LABEL": "label 1"}
{"SEQUENCE CODE": "RFVPDGNRI [SEQ ID NO:8]", "CATEGORY LABEL": "label 1"}
{"SEQUENCE CODE": "KWEFPRDRL [SEQ ID NO:11]", "CATEGORY LABEL": "label 1"}
{"SEQUENCE CODE": "AFGSGMESL [SEQ ID NO:9]", "CATEGORY LABEL": "label 0"}
{"SEQUENCE CODE": "KFGNLSTYL [SEQ ID NO:4]", "CATEGORY LABEL": "label 0"}
{"SEQUENCE CODE": "WYKLGPQPL [SEQ ID NO:1]", "CATEGORY LABEL": "label 0"}
{"SEQUENCE CODE": "SYMISYAGM [SEQ ID NO:5]", "CATEGORY LABEL": "label 1"}
{"SEQUENCE CODE": "EFPRDRLKL [SEQ ID NO:6]", "CATEGORY LABEL": "label 0"}
{"SEQUENCE CODE": "KNLDTLWKL [SEQ ID NO:10]", "CATEGORY LABEL": "label 0"}

====

Attribute: ELISPOT ANALYSIS ×40 (SFC) MOUSE1 pep(−)
tested on: transgenic mice that express human HLA (A0201); assay: IFN-γ ELISPOT of splenocytes from peptide-vaccinated A2/Kb transgenic mice; format: in vivo, mouse; details: ×40; mouse 1; unpulsed T2 cells

{"SEQUENCE CODE": "ILLSEKNVV (listed as Homo sapiens) [SEQ ID NO:31]", "UNIT STRING": "SFC", "ELISPOT ANALYSIS ×40 (SFC) MOUSE1 pep(−)": 0}
{"SEQUENCE CODE": "VIAMFFWLL (listed as Homo sapiens) [SEQ ID NO:30]", "UNIT STRING": "SFC", "ELISPOT ANALYSIS ×40 (SFC) MOUSE1 pep(−)": 6}
{"SEQUENCE CODE": "ALIEGKNKT (listed as Homo sapiens) [SEQ ID NO:39]", "UNIT STRING": "SFC", "ELISPOT ANALYSIS ×40 (SFC) MOUSE1 pep(−)": 0}
{"SEQUENCE CODE": "YQYGTTQTL (listed as Homo sapiens) [SEQ ID NO:38]", "UNIT STRING": "SFC", "ELISPOT ANALYSIS ×40 (SFC) MOUSE1 pep(−)": 0}
{"SEQUENCE CODE": "FQGGNKIEV (listed as Homo sapiens) [SEQ ID NO:37]", "UNIT STRING": "SFC", "ELISPOT ANALYSIS ×40 (SFC) MOUSE1 pep(−)": 0}
{"SEQUENCE CODE": "TLWKLNATM (listed as Homo sapiens) [SEQ ID NO:36]", "UNIT STRING": "SFC", "ELISPOT ANALYSIS ×40 (SFC) MOUSE1 pep(−)": 0}
{"SEQUENCE CODE": "IMWFKDNET (listed as Homo sapiens) [SEQ ID NO:35]", "UNIT STRING": "SFC", "ELISPOT ANALYSIS ×40 (SFC) MOUSE1 pep(−)": 0}
{"SEQUENCE CODE": "VLLWEIFSL (listed as Homo sapiens) [SEQ ID NO:26]", "UNIT STRING": "SFC", "ELISPOT ANALYSIS ×40 (SFC) MOUSE1 pep(−)": 8}
{"SEQUENCE CODE": "VLLAVALWL (listed as Homo sapiens) [SEQ ID NO:28]", "UNIT STRING": "SFC", "ELISPOT ANALYSIS ×40 (SFC) MOUSE1 pep(−)": 0}
{"SEQUENCE CODE": "LLWEIFSLGA [SEQ ID NO:41]", "UNIT STRING": "SFC", "ELISPOT ANALYSIS ×40 (SFC) MOUSE1 pep(−)": 0}
{"SEQUENCE CODE": "SLQDQGDYV (listed as Homo sapiens) [SEQ ID NO:27]", "UNIT STRING": "SFC", "ELISPOT ANALYSIS ×40 (SFC) MOUSE1 pep(−)": 0}

====

test system: transgenic mice that express human HLA (A0201); assay: IFN-γ ELISPOT of splenocytes from peptide-vaccinated A2/Kb transgenic mice; format: in vivo, mouse; settings: ×40; mouse 1; peptide-pulsed T2 cells
Reported ELISPOT ANALYSIS ×40 (SFC) MOUSE1 pep(+) values are given for each entry in this list.

{"SEQUENCE CODE": "ALIEGKNKT (listed as Homo sapiens) [SEQ ID NO:39]", "ELISPOT ANALYSIS ×40 (SFC) MOUSE1 pep(+)": 0}
{"SEQUENCE CODE": "IMWFKDNET (listed as Homo sapiens) [SEQ ID NO:35]", "ELISPOT ANALYSIS ×40 (SFC) MOUSE1 pep(+)": 0}
{"SEQUENCE CODE": "VIAMFFWLL (listed as Homo sapiens) [SEQ ID NO:30]", "ELISPOT ANALYSIS ×40 (SFC) MOUSE1 pep(+)": 171}
{"SEQUENCE CODE": "VLLAVALWL (listed as Homo sapiens) [SEQ ID NO:28]", "ELISPOT ANALYSIS ×40 (SFC) MOUSE1 pep(+)": 6}
{"SEQUENCE CODE": "SLQDQGDYV (listed as Homo sapiens) [SEQ ID NO:27]", "ELISPOT ANALYSIS ×40 (SFC) MOUSE1 pep(+)": 0}
{"SEQUENCE CODE": "YQYGTTQTL (listed as Homo sapiens) [SEQ ID NO:38]", "ELISPOT ANALYSIS ×40 (SFC) MOUSE1 pep(+)": 0}
{"SEQUENCE CODE": "VLLWEIFSL (listed as Homo sapiens) [SEQ ID NO:26]", "ELISPOT ANALYSIS ×40 (SFC) MOUSE1 pep(+)": 5}
{"SEQUENCE CODE": "TLWKLNATM (listed as Homo sapiens) [SEQ ID NO:36]", "ELISPOT ANALYSIS ×40 (SFC) MOUSE1 pep(+)": 0}
{"SEQUENCE CODE": "ILLSEKNVV (listed as Homo sapiens) [SEQ ID NO:31]", "ELISPOT ANALYSIS ×40 (SFC) MOUSE1 pep(+)": 0}
{"SEQUENCE CODE": "FQGGNKIEV (listed as Homo sapiens) [SEQ ID NO:37]", "ELISPOT ANALYSIS ×40 (SFC) MOUSE1 pep(+)": 0}
{"SEQUENCE CODE": "LLWEIFSLGA [SEQ ID NO:41]", "ELISPOT ANALYSIS ×40 (SFC) MOUSE1 pep(+)": 0}
